Cited source: the supplement of paper PMC6555819

Tested on: RXRa homodimer (NR concentration 180 nM)
Assay Summary: PBM binding z-score (relative to random genomic background probes); higher = stronger binding; sequences stand for … in GC…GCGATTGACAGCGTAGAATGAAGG
Listed here are sequences together with their documented PBM binding z-score.
Number, no unit, nothing else.

CCTAGCAGGCCGGGGTCACTCAAGCATTTCGCTT 6.81
ACCTCTAGGTAAAGATAGTTCAGTGAATGCAAAT 0.0359
CCTATTAGTTGACCATAAGGGCAATCGAAGCTCG 0.516
GCTATTAGTTCAAAGGGCAACCGAATGATTCTCG 4.05
TCTTCTAGATCAACAGGAGGTTAAGAAAGATCGA 1.01
GGAACGAGGACATTCGAGTTGATAGCATGGCGAT 0.11
GTACCAAGGTGAATAGGTCGTCGATGAGTAGGCG 2.1
GCTAGCAGGCCATTTGGGTAACTCAATGACGGGC -0.0687

Inquiry: Determine from records and report PBM binding z-score for "AGAACGTGGGCACGCTGAGTTGATAGCAGAGTAG"
Reply text: -0.0635

Inquiry: Tell me its PBM binding z-score given "CGTCCAAGGTCAATGCTAGGTCAGTAAAAGCATT" as the entry.
Reply text: 5.24

Inquiry: Identify measured PBM binding z-score corresponding to "TCTCGGAGGACACGAAAGTTCAGAGCTCGACATC"
Reply text: 1.14

Inquiry: Hello, please tell me recorded PBM binding z-score for this one: "CCGACTGGGGCAGAAATGTTACCATACCATCCGG"
Reply text: 0.066

Inquiry: Query PBM binding z-score for "CCTTGCAGGCCAATCTGGGTCACTCAAGGCTTGA"
Reply text: 0.742

Inquiry: Given the sequence "TTACCAACGTGAAGGTCGTTGATCCCTCTGTAGA" , write its reported PBM binding z-score.
Reply text: 1.17

Inquiry: Give the reported value of PBM binding z-score for this record: "TAGCCTAGGTCATTCAGGGGCCAGTAAAGAAAGC"
Reply text: 3.27

Inquiry: Give recorded PBM binding z-score. "TAGCCTAGGTCATTCAGGGGCCAGTATTGAAAGC"
Reply text: 2.72

====

Test system: RARg:RXRa (NR concentration 270 nM, RXRa partner concentration 90 nM)
Assay Summary: PBM binding z-score (relative to random genomic background probes); higher = stronger binding; sequences stand for … in GC…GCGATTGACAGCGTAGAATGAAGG
Assay Readout: PBM binding z-score

Below, each entry is followed by its recorded PBM binding z-score result.
ACTAGCAGACCAAGTTTGGGTCACTCAAACAAAG 0.911
CGAACGAGGGCATGAGTCGATAGCAAATGCCGAT 0.901
CCGACTGGGGCATAAGGTTACTATAAGCCAGCCC 1.37
TAGCCTAGGTCATGCGGTCCAGTATAGTGTCGGC 3.75

Inquiry: Specify measured PBM binding z-score for "CGTCCAAGGTCATAGGAGGACAGTGAAGACAGAT" .
Reply text: 5.65

====

Test system: PPARg:RXRa DBDmut IVT, anti-RXR (DBD mutation: RXRa K156A/R161A, NR concentration 270 nM, RXRa partner concentration 90 nM)
Assay Summary: PBM binding z-score (relative to random genomic background probes); higher = stronger binding; sequences stand for … in GC…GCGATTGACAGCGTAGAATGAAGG
Reported PBM binding z-score values are given for each entry in this list.

A selection of reference data follows.
ATCCCTAGGTAACAAGTTCAGTGAAAGAGAGGAC 0.293
TTACAAAGGTGAAGGTCGTTGATCCCTCTGTAGA 2.62
GCTAGTAGGCCATTTGGGTCACTCAATGACGGGC 5.94

Inquiry: Identify the reported PBM binding z-score for the following entry. "ACAGACAGTTGATGAAGGTAACTCAGGCTATCAT"
Reply text: -0.364

Inquiry: For the sequence "TAGCCTAGGTCATTTAGGGGCCAGTATAGAAAGC" , give its measured PBM binding z-score value.
Reply text: 1.79

Inquiry: State, in one line, measured PBM binding z-score of "GCTTACGGGTCAAAGGTTATACCATGAATAGAAT"
Reply text: 4.59

Inquiry: Output measured PBM binding z-score for this item: "CCAGACAGGTGAAGGGTAACTCAGTCTGGTACGC"
Reply text: 0.998
